system: HT29 colon; assay: NCI-60 one-dose screen, 48 h (100 = growth as untreated, 0 = no growth, -100 = all killed); details: 10 µM unless noted
About 83,000 compounds went through this panel and 20% of them were active in at least one assay; those are over-represented in the sample as a whole.
Please note: 1.0 applies when growth is -30% or greater, and 0.0 applies otherwise.

Consider the worked cases shown below.
COc1cccc(/C=C/C(=O)c2ccc(OC)c(S(N)(=O)=O)c2)c1; 1.0
C/C(=N\N=C\c1cc([N+](=O)[O-])ccc1Cl)c1ccc2c(c1)Nc1ccccc1S2; 1.0

[Q] Form field: growth at least -30%? Entry: COCOc1ccc2c(=O)c(C)c(C(=O)N[C@@H](Cc3ccccc3)C(O)C(=O)NCCc3ccc(OC)cc3)oc2c1 (some centres not stated)
[A] 1.0

[Q] Entry COc1ccc(C(=O)/C=C/c2cccc(Cl)c2)cc1S(N)(=O)=O : is its growth no less than -30%?
[A] 1.0

[Q] Exam item: decide whether the reported growth for S=c1c2ccccc2nc2n1CCc1c-2[nH]c2ccccc12 is at least -30%.
[A] 1.0

* * *

system: U251 CNS; assay: NCI-60 one-dose screen, 48 h; details: 10 µM unless noted
This is part of a sample that, as a whole, favours compounds with a hit. Of some 83,000 tested, about 20% had one in any assay. Calls of active or inactive are those of the source. The calls were made as follows: active = growth percent below 10; inactive = the rest.
Hello, when you answer, please use one of the following outcomes: Y for active, N for inactive

COc1ccc(C(=O)Nc2n[nH]c(Nc3ccccc3)c2C#N)cc1; N
O=C(Cn1c(/C=C/c2ccccc2)nc2ccccc2c1=O)Nc1ccc(Cl)cc1; N
CN1CCN(c2ccc3c(c2)nc(NNC(=O)c2cnccn2)c2cccn23)CC1; Y
CCOC(=O)C1=C(N)N(c2ccccc2)C2=C(C(=O)CC(C)(C)C2)C1c1ccc([N+](=O)[O-])cc1 (stereo not drawn); N
CC1=C(C(=O)OC(C)C)C(c2cccc(O)c2)NC(=S)N1 (stereo not drawn); N

[Q] // return assay outcome for COc1ccc(-c2nc3cc(C)ccc3n2CC(=O)N=Nc2c(O)[nH]c3ccccc23)cc1
[A] Y

[Q] Fill in: this test's call for CC(=O)Nc1cccc(Nc2nccc(N[C@@H](C)c3ccccc3)n2)c1 is ___
[A] N

[Q] Hi team, can someone confirm the assay call for COc1cc(OC)cc(C(=O)Nc2cccc(-c3cn(-c4ccc(S(N)(=O)=O)cc4)nn3)c2)c1 ?
[A] N

* * *

test system: SW-620 colon; assay: NCI-60 one-dose screen, 48 h (100 = growth as untreated, 0 = no growth, -100 = all killed); settings: 10 µM unless noted
Compounds without any hit were thinned out: in the full panel of roughly 83,000, 20% have a hit.
For each of the compounds below, state its growth.
One number for each entry, in %.

# annotated cases, reported growth shown
COc1ccc(C2CC(c3ccc(S(=O)(=O)NCCNc4nc(Nc5ccc(F)cc5)nc(N(C)C)n4)cc3)=Nc3c(N)nc(N)nc3N2)cc1 (stereo not given); 96
COc1cc2c(c(OC)c1OC)C(=O)CC(c1cccc(NC(=O)c3cccc(NC(=O)[C@H](C)NC(=O)OC(C)(C)C)c3)c1)O2 (stereo not given in full); 86.9
Cn1cc(-c2cc(N)n3nc(-c4cn(C)c5ccccc45)cc3n2)c2cc(Cl)ccc21; -35.3

Hey, quick one: what's growth for each of these?
1. COCOc1cc2c(=O)c(C)c(C(=O)N[C@@H](Cc3ccccc3)C(O)C(=O)NCc3ccccc3)oc2cc1OC (stereo not given in full)
2. N=C1N=C(SCc2nc3ccccc3[nH]2)NC(=O)/C1=C/c1ccc(Cl)cc1
3. COc1c(F)ccc(C(=O)Nc2ccc3nc(NC(=O)C4CCCN(S(=O)(=O)c5cccc(Br)c5)C4)sc3c2)c1F (stereo not given)
4. CC1(c2cc3cc(Cl)ccc3oc2=O)NC(=O)c2c(/C=C/C(=O)OC3CC4CCC3(C)C4(C)C)cccc2N1 (stereo not given)
5. COC1=C[C@]23CCC(=O)N2CCc2cc4c(cc2[C@@H]3[C@@H]1OC(=O)[C@H](C)O)OCO4
6. S=C(Nc1ccccc1)Nc1ccc(OCc2nc3ccccc3[nH]2)cc1

[A]
31.1
98.5
94.5
73
13.6
48

For each of the items listed, what is its growth?
1. NS(=O)(=O)c1ccc(-n2cc(-c3cccc(NC(=O)c4cc(Cl)cc(Cl)c4)c3)nn2)cc1
2. Cc1ccccc1[C@H]1C(C(=O)c2ccc(Cl)cc2)C2(N[C@@H]1c1ccccc1)C(=O)Nc1ccc(Cl)cc12 (stereo not given in full)

[A]
[54.7, -9.32]

Batch: growth for all items listed.
1. COc1ccc2[nH]c(O)c(N=NC(=O)Cn3c(-c4ccccc4)nc4cc(C)ccc43)c2c1
2. Cc1ccc(C(=O)CSc2nc3ccc(F)cc3c(=O)n2-c2ccc(Cl)cc2)cc1

[A]
47.2
75

Please report growth for every entry that follows.
1. CCOP(=O)(OCCCl)c1nc(-c2ccc(C)cc2)oc1NCc1ccccc1 (stereo not given)
2. NS(=O)(=O)c1ccc(-n2cc(-c3cccc(NC(=O)c4ccc(Cl)c(C(F)(F)F)c4)c3)nn2)cc1
3. COc1ccc(NC(=O)Cn2c(/C=C/c3cccc([N+](=O)[O-])c3)nc3ccccc3c2=O)cc1

[A]
[86.5, 42, 92.6]

For each of the items listed, what is its growth?
1. COc1cc(-c2nc3ccc(C)cc3[nH]2)ccc1OCc1nnc(-c2ccc(Br)cc2)o1
2. Cn1cc(-c2cc(N)n3nc(-c4c[nH]c5ccccc45)cc3n2)c2cc(Br)cnc21
3. CC(=O)N1CCN(Cc2ccc3c(NNC(=O)c4cnccn4)nc4cc(F)ccc4n23)CC1

[A]
1: 35.5; 2: -69.1; 3: 38.8

For each listed entry, give its growth.
1. COc1ccc2[nH]cc(-c3nnc(N)nc3-c3c[nH]c4ncc(Br)cc34)c2c1
2. Nc1nc(C(F)(F)F)cs1
3. CCCCSc1nc(NCCc2c[nH]c3ccccc23)c(C#N)c(-c2ccc(F)cc2)n1
4. Cc1occc1C(=O)NN1C(=O)/C(=C/C=C/c2ccc([N+](=O)[O-])o2)SC1=S
5. O=C1c2c(c3c4cc(F)ccc4oc3c3[nH]c4ccc(Br)cc4c23)C(=O)N1O
6. Cc1sc2c(c1C)C(c1ccc(Cl)cc1)=N[C@@H](CC(=O)NCCCCCNC(=O)COc1ccc(C3CCC(=O)NC3=O)cc1)c1nnc(C)n1-2 (stereo not given in full)

[A]
1. 88.8
2. 104
3. 60.4
4. -43.2
5. 34.9
6. 23.1

// each listed compound needs a value for growth
1. O=C(O)Cn1c(O)c(/C=C2/C=c3cc4c(cc3=NC2=O)OCCO4)sc1=S
2. CC(C)CSc1nc(NCCc2c[nH]c3ccccc23)c(C#N)c(-c2ccc(Cl)cc2)n1
3. O=C1CC(Sc2n[nH]c(-c3ccncc3)n2)C(=O)N1c1ccc(Br)cc1 (stereo not given)

[A]
[113, 24.9, 101]

Field: growth. Fill in for each record below.
1. O=C(c1ccccc1)c1ccc2nc(-c3ccc(F)cc3)[nH]c2c1
2. COc1ccc(N2N=C(c3ccc4c(c3)OCO4)CC2c2cccc(NC(=O)CCNS(=O)(=O)c3ccc(Cl)cc3)c2)cc1 (stereo not given)
3. O=C(N=Nc1c(O)[nH]c2ccc(Cl)cc12)c1ccc2nc(-c3ccccc3)[nH]c2c1

[A]
1: 28.2; 2: 55.8; 3: 17.8

* * *

tested on: HCC-2998 colon; assay: NCI-60 one-dose screen, 48 h (100 = growth as untreated, 0 = no growth, -100 = all killed); details: 10 µM unless noted
Compounds without any hit were thinned out: in the full panel of roughly 83,000, 20% have a hit.
Decide using growth: a value greater than or equal to 80% is class 1, a smaller one is class 0.

Cc1sc2c(c1C)C(c1ccc(Cl)cc1)=N[C@@H](CC(=O)NCCCCCNC(=O)COc1ccc(C3CCC(=O)NC3=O)cc1)c1nnc(C)n1-2 (some centres undefined); class 0
Cc1ccc(-c2nc(C#N)c(S(=O)(=O)N3CCN(S(=O)(=O)c4ccccc4)CC3)o2)cc1; class 0

[Q] Check this compound for growth at or above 80%: Clc1ccc(-c2ccc(OCCCN3CCN(c4ccncc4)CC3)cc2)cc1
[A] class 0

[Q] Hi, just wondering whether CCOC(=O)C1=C(N)N(c2ccccc2)C2=C(C(=O)CC(C)(C)C2)C1c1ccc([N+](=O)[O-])cc1 (centres undefined) shows growth of 80% or higher.
[A] class 1

[Q] Determine whether this compound has growth no lower than 80%: N#Cc1c(-c2cccc(Cl)c2Cl)cc(-c2ccc3ccccc3c2)[nH]c1=O
[A] class 0

[Q] Decide: growth of O=C1Nc2ccc([N+](=O)[O-])cc2C1=Nc1ccccc1 >= 80%?
[A] class 1
